Assay: Particle characteristics of LNPs containing EGFP mRNA and novel ionizable lipids
Assay type: physicochemical
Conditions: Table 21; EGFP mRNA LNP 1.6:54.6:32.8:10.9
Procedure: The lipid solution contains 4 components: a PEG-conjugated lipid, an ionizable lipid, cholesterol, and a phospholipid (e.g., DSPC). Lipid stocks were prepared using the lipid identities and molar ratios as described, to achieve a total concentration of ˜7 mg/mL in 100% ethanol. […] Nucleic acid concentration was determined by the RiboGreen assay. Particle size and polydispersity were determined using a Malvern Nano Series Zetasizer. […]
Form field: Final Product Z-avg (one value per entry).
The reply should contain only the number, in nm.

COMPOUND	Final Product Z-avg [nm]
CCCCCC/C=C\CCON(C(=O)CCCCN(C)C)C(CCCCCCCCCC)CCCCCCC(=O)OCCC(CCCCCCC)CCCCCCC (stereo not drawn)	84
CCCCCCCCCCON(C(=O)CCCCN(C)C)C(CCCCCCCCCC)CCCCCCC(=O)OCCC(CCCCCCC)CCCCCCC (stereo not drawn)	86
CCCCCCCCCCON(C(=O)CCCCN(C)C)C(CCCCCCCCCC)CCCCCCC(=O)OCCC(CCCCCC)CCCCCC (stereo not drawn)	85
CCCCCCCCCCN(C(=O)CCCN(C)C)C(CCCCCCCCC)CCCCCCC(F)(F)C(=O)OC(CCCCCC)CCCCCC (stereo not drawn)	71
CCCCCCCCCCN(C(=O)CCCN(C)C)C(CCCCCCCCC)CCCCC(F)(F)C(=O)OC(CCCCCCC)CCCCCCC (stereo not drawn)	70
CCCCCCCCCCN(C(=O)CCCN(C)C)C(CCCCCCCCC)CCCCC(F)(F)C(=O)OCC(CCCCCC)CCCCCCCC (stereo not drawn)	67
CCCCCCCCCCN(C(=O)CCCN(C)C)C(CCCCCCCCC)CCCCCCC(F)(F)C(=O)OC(CCCCCCC)CCCCCCC (stereo not drawn)	69
CCCCCC/C=C\CCON(C(=O)CCCCN(C)C)C(CCCCCCCCCC)CCCCCCC(=O)OCCC(CCCCC)CCCCC (stereo not drawn)	83

Which Final Product Z-avg reading was recorded for the compound CCCCCCCCCCN(C(=O)CCCN(C)C)C(CCCCCCCCC)CCCCC(F)(F)C(=O)OCCC(CCCCCC)CCCCCC (stereo not drawn) ? 67

// same read-out, input: CCCCC/C=C\CCCC(CCC/C=C\CCCCC)C(CCC/C=C\CCCCC)OC(=O)CCCCN(C)C (stereo not drawn) [Compound 13-B43, reference compound] 75

Queued: CCCCCC/C=C\CCON(C(=O)CCCN(C)C)C(CCCCCCCCCC)CCCCCCC(=O)OCCC(CCCCC)CCCCC (stereo not drawn) 72

Also, CCCCCCCCCCON(C(=O)CCCCN(C)C)C(CCCCCCCCCC)CCCCCCC(=O)OCCC(CCCCC)CCCCC (stereo not drawn) please. 80
